system: 186277-243-T-J2-PDC complex spheroid growth, % test/control; test: Anticancer human tumor 186277-243-T-J2-PDC patient-derived colon adenocarcinoma cell line growth inhibition [Asc]; settings: second compound 10 µM; first compound 0.01 µM; active compounds read low
Entries annotated with measured viability, T/C
reportedEndpoint: viability, T/C

INSERT INTO assay_data (molecule, assayresult) VALUES
  ('NC1CCC(NC2CC2c2ccccc2)CC1 (stereo not drawn) + Cc1c(S(C)(=O)=O)c(-c2cc(F)cc(N3CCN(c4ccc(NS(=O)(=O)c5ccc(NC(CCN6CCC(C(=O)OCCCP(=O)(O)O)CC6)CSc6ccccc6)c(S(=O)(=O)C(F)(F)F)c5)cc4)CC3)c2)c(-c2ccc(Cl)cc2)n1C(C)C', '92.8%'),
  ('COc1c(OCCCN2CCOCC2)ccc2c3n(c(=NC(=O)c4cnc(N)nc4)nc12)CCN3 + Cc1c(S(C)(=O)=O)c(-c2cc(F)cc(N3CCN(c4ccc(NS(=O)(=O)c5ccc(NC(CCN6CCC(C(=O)OCCCP(=O)(O)O)CC6)CSc6ccccc6)c(S(=O)(=O)C(F)(F)F)c5)cc4)CC3)c2)c(-c2ccc(Cl)cc2)n1C(C)C', '83.9%'),
  ('CNC(C)C(=O)NC1CN(S(=O)(=O)c2cccc(S(=O)(=O)N3CCC4CCC(C(=O)NC(c5ccccc5)c5ccccc5)N4C(=O)C(NC(=O)C(C)NC)C3)c2)CCC2CCC(C(=O)NC(c3ccccc3)c3ccccc3)N2C1=O (stereo not drawn) + Cc1c(S(C)(=O)=O)c(-c2cc(F)cc(N3CCN(c4ccc(NS(=O)(=O)c5ccc(NC(CCN6CCC(C(=O)OCCCP(=O)(O)O)CC6)CSc6ccccc6)c(S(=O)(=O)C(F)(F)F)c5)cc4)CC3)c2)c(-c2ccc(Cl)cc2)n1C(C)C', '103%');

---

tested on: 186277-243-T-J2-PDC complex spheroid growth, % test/control; assay: Anticancer human tumor 186277-243-T-J2-PDC cell line growth inhibition [Asc]; conditions: second compound 1 µM; first compound 0.316 µM; active compounds read low;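 further: spheroids exposed to agents for 7 days; 100% = DMSO vehicle control wells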
# satisfied = viability, T/C below 30% (exclusive); not satisfied = viability, T/C at/above 30%

INSERT INTO results (compound, systemname, cat) VALUES
  ('CCN1CCN(Cc2ccc(Nc3ncc(F)c(-c4cc(F)c5nc(C)n(C(C)C)c5c4)n3)nc2)CC1 + CNC(C)C(=O)NC1CN(S(=O)(=O)c2cccc(S(=O)(=O)N3CCC4CCC(C(=O)NC(c5ccccc5)c5ccccc5)N4C(=O)C(NC(=O)C(C)NC)C3)c2)CCC2CCC(C(=O)NC(c3ccccc3)c3ccccc3)N2C1=O', '186277-243-T-J2-PDC complex spheroid growth, % test/control', 'not satisfied'),
  ('CNC(C)C(=O)NC1CN(S(=O)(=O)c2cccc(S(=O)(=O)N3CCC4CCC(C(=O)NC(c5ccccc5)c5ccccc5)N4C(=O)C(NC(=O)C(C)NC)C3)c2)CCC2CCC(C(=O)NC(c3ccccc3)c3ccccc3)N2C1=O (stereo unspecified) + Cc1c(S(C)(=O)=O)c(-c2cc(F)cc(N3CCN(c4ccc(NS(=O)(=O)c5ccc(NC(CCN6CCC(C(=O)OCCCP(=O)(O)O)CC6)CSc6ccccc6)c(S(=O)(=O)C(F)(F)F)c5)cc4)CC3)c2)c(-c2ccc(Cl)cc2)n1C(C)C', '186277-243-T-J2-PDC complex spheroid growth, % test/control', 'not satisfied'),
  ('O=C(c1ccc(F)c(F)c1Nc1ccc(I)cc1F)N1CC(O)([C@@H]2CCCCN2)C1 + Cc1c(S(C)(=O)=O)c(-c2cc(F)cc(N3CCN(c4ccc(NS(=O)(=O)c5ccc(NC(CCN6CCC(C(=O)OCCCP(=O)(O)O)CC6)CSc6ccccc6)c(S(=O)(=O)C(F)(F)F)c5)cc4)CC3)c2)c(-c2ccc(Cl)cc2)n1C(C)C', '186277-243-T-J2-PDC complex spheroid growth, % test/control', 'satisfied'),
  ('C=CC(=O)N1CCN(c2nc(=O)n(-c3c(C)ccnc3C(C)C)c3nc(-c4c(O)cccc4F)c(F)cc23)C(C)C1 (stereo unspecified) + CNC(C)C(=O)NC1CN(S(=O)(=O)c2cccc(S(=O)(=O)N3CCC4CCC(C(=O)NC(c5ccccc5)c5ccccc5)N4C(=O)C(NC(=O)C(C)NC)C3)c2)CCC2CCC(C(=O)NC(c3ccccc3)c3ccccc3)N2C1=O', '186277-243-T-J2-PDC complex spheroid growth, % test/control', 'not satisfied'),
  ('C#Cc1c(F)ccc2cc(O)cc(-c3ncc4c(N5CC6CCC(C5)N6)nc(OCC56CCCN5CC(F)C6)nc4c3F)c12 (stereo unspecified) + CNC(C)C(=O)NC1CN(S(=O)(=O)c2cccc(S(=O)(=O)N3CCC4CCC(C(=O)NC(c5ccccc5)c5ccccc5)N4C(=O)C(NC(=O)C(C)NC)C3)c2)CCC2CCC(C(=O)NC(c3ccccc3)c3ccccc3)N2C1=O', '186277-243-T-J2-PDC complex spheroid growth, % test/control', 'not satisfied'),
  ('C=CC(=O)N1CCN(c2nc(=O)n(-c3c(C)ccnc3C(C)C)c3nc(-c4c(O)cccc4F)c(F)cc23)C(C)C1 (stereo unspecified) + Cc1c(S(C)(=O)=O)c(-c2cc(F)cc(N3CCN(c4ccc(NS(=O)(=O)c5ccc(NC(CCN6CCC(C(=O)OCCCP(=O)(O)O)CC6)CSc6ccccc6)c(S(=O)(=O)C(F)(F)F)c5)cc4)CC3)c2)c(-c2ccc(Cl)cc2)n1C(C)C', '186277-243-T-J2-PDC complex spheroid growth, % test/control', 'not satisfied');

---

System: 186277-243-T-J2-PDC complex spheroid growth, % test/control
Assay: Anticancer human tumor 186277-243-T-J2-PDC cell line growth inhibition [Asc];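 further: spheroids exposed to agents for 7 days; 100% = DMSO vehicle control wells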
Settings: second compound 3.16 µM; first compound 0.1 µM; active compounds read low
Description: Multicellular complex tumor spheroid response to apoptosis pathway targeting inhibitors Alrizomadlin, Pelcitoclax, and Dasminapant in combination with a variety of drugs and investigational agents in selected tumor cell lines […] Compounds. […] If the clinical Cmax for an agent had not been determined, the highest concentration tested was 10 microM. […]
Entries annotated with measured viability, T/C
reportedEndpoint: viability, T/C (%)

INSERT INTO measurements (compound, assayresult) VALUES
  ('C#Cc1c(F)ccc2cc(O)cc(-c3ncc4c(N5CC6CCC(C5)N6)nc(OCC56CCCN5CC(F)C6)nc4c3F)c12 (centres undefined) + Cc1c(S(C)(=O)=O)c(-c2cc(F)cc(N3CCN(c4ccc(NS(=O)(=O)c5ccc(NC(CCN6CCC(C(=O)OCCCP(=O)(O)O)CC6)CSc6ccccc6)c(S(=O)(=O)C(F)(F)F)c5)cc4)CC3)c2)c(-c2ccc(Cl)cc2)n1C(C)C', 47.1),
  ('C=CC(=O)N1CCN(c2nc(=O)n(-c3c(C)ccnc3C(C)C)c3nc(-c4c(O)cccc4F)c(F)cc23)C(C)C1 (centres undefined) + Cc1c(S(C)(=O)=O)c(-c2cc(F)cc(N3CCN(c4ccc(NS(=O)(=O)c5ccc(NC(CCN6CCC(C(=O)OCCCP(=O)(O)O)CC6)CSc6ccccc6)c(S(=O)(=O)C(F)(F)F)c5)cc4)CC3)c2)c(-c2ccc(Cl)cc2)n1C(C)C', 123),
  ('CNC(C)C(=O)NC1CN(S(=O)(=O)c2cccc(S(=O)(=O)N3CCC4CCC(C(=O)NC(c5ccccc5)c5ccccc5)N4C(=O)C(NC(=O)C(C)NC)C3)c2)CCC2CCC(C(=O)NC(c3ccccc3)c3ccccc3)N2C1=O (centres undefined) + Cc1c(S(C)(=O)=O)c(-c2cc(F)cc(N3CCN(c4ccc(NS(=O)(=O)c5ccc(NC(CCN6CCC(C(=O)OCCCP(=O)(O)O)CC6)CSc6ccccc6)c(S(=O)(=O)C(F)(F)F)c5)cc4)CC3)c2)c(-c2ccc(Cl)cc2)n1C(C)C', 109),
  ('Cn1ncnc1[C@H]1c2n[nH]c(=O)c3cc(F)cc(c23)N[C@@H]1c1ccc(F)cc1 + Cc1c(S(C)(=O)=O)c(-c2cc(F)cc(N3CCN(c4ccc(NS(=O)(=O)c5ccc(NC(CCN6CCC(C(=O)OCCCP(=O)(O)O)CC6)CSc6ccccc6)c(S(=O)(=O)C(F)(F)F)c5)cc4)CC3)c2)c(-c2ccc(Cl)cc2)n1C(C)C', 56.1);

---

test system: 186277-243-T-J2-PDC complex spheroid growth, % test/control; assay: Anticancer human tumor 186277-243-T-J2-PDC cell line growth inhibition [Asc]; conditions: second compound 1 µM; first compound 0.03 µM; active compounds read low;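 further: spheroids exposed to agents for 7 days; 100% = DMSO vehicle control wells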
reportedEndpoint: viability, T/C (%)

INSERT INTO results (compound, assayresult) VALUES
  ('NC(=O)C(=Cn1cnc(-c2cc(C(F)(F)F)cc(C(F)(F)F)c2)n1)c1cncnc1 + Cc1c(S(C)(=O)=O)c(-c2cc(F)cc(N3CCN(c4ccc(NS(=O)(=O)c5ccc(NC(CCN6CCC(C(=O)OCCCP(=O)(O)O)CC6)CSc6ccccc6)c(S(=O)(=O)C(F)(F)F)c5)cc4)CC3)c2)c(-c2ccc(Cl)cc2)n1C(C)C', 98.2),
  ('CCN1C(C(=O)NC23CCC(C(=O)O)(CC2)CC3)C(c2cccc(Cl)c2F)C2(C(=O)Nc3cc(Cl)ccc32)C12CCCCC2 (stereo not drawn) + CNC(C)C(=O)NC1CN(S(=O)(=O)c2cccc(S(=O)(=O)N3CCC4CCC(C(=O)NC(c5ccccc5)c5ccccc5)N4C(=O)C(NC(=O)C(C)NC)C3)c2)CCC2CCC(C(=O)NC(c3ccccc3)c3ccccc3)N2C1=O', 132),
  ('NC(=O)C(=Cn1cnc(-c2cc(C(F)(F)F)cc(C(F)(F)F)c2)n1)c1cncnc1 + CNC(C)C(=O)NC1CN(S(=O)(=O)c2cccc(S(=O)(=O)N3CCC4CCC(C(=O)NC(c5ccccc5)c5ccccc5)N4C(=O)C(NC(=O)C(C)NC)C3)c2)CCC2CCC(C(=O)NC(c3ccccc3)c3ccccc3)N2C1=O', 111);
